Read-out: Alkaline Phosphatase, Placental (ALPP) gene, ALPP (gene 250)
Experiment: LTEA_HepaRG_ALPP: Life Technologies and Expression Analysis (LTEA) Assay for Alkaline Phosphatase, Placental (ALPP) gene using HepaRG (AID 2283468)
Conditions: mRNA level, 48 h; actives raise or lower the signal
Active and inactive are the calls of the source. The calls were made as follows: active = hit-call score of the fitted dose curve at least 0.9, where 1 is the maximum; inactive = score below 0.9.

{"COMPOUND": "CCCCCCCCCCCCOS(=O)(=O)O", "outcome": "inactive"}
{"COMPOUND": "O=C1NS(=O)(=O)c2ccccc21", "outcome": "inactive"}
{"COMPOUND": "CCC(C)c1ccccc1O (stereo not drawn)", "outcome": "inactive"}

* * *

Read-out: Monocyte Chemoattractant Protein-1 (MCP1), CCL2 (gene 6347)
Experiment: BSK_LPS_MCP1: BioMAP Diversity Plus: LPS Assay for Monocyte Chemoattractant Protein-1 (MCP1) Biomarker Activity (AID 2283081)
Settings: primary human HUVEC with PBMC; actives raise or lower the signal
The source made the active and inactive calls. The calls were made as follows: active = hit-call score of the fitted dose curve at least 0.9, where 1 is the maximum; inactive = score below 0.9.
Select the matching outcome among y for active, n for inactive

## Input Hey, what did the test say about CCCCCc1ccc(O)cc1 ?
## Output y

## Input Another compound to check: C=COC(=O)C(C)(C)CCCCCC
## Output y

## Input Same question for Cc1[nH]nc2c1N=C(c1ccccc1Cl)c1cc([N+](=O)[O-])ccc1N2 please.
## Output y

## Input Now give it for COc1cc(OC)nc(NC(=O)NS(=O)(=O)Nc2ccccc2C(=O)N(C)C)n1 too.
## Output n

## Input Would you kindly repeat that for O=C1NS(=O)(=O)c2ccccc21 ?
## Output n

## Input Would you kindly repeat that for CCCCc1oc2ccccc2c1C(=O)c1cc(I)c(OCCN(CC)CC)c(I)c1 ?
## Output y

* * *

Experiment: ATG_PPRE_CIS: Attagene CIS-FACTORIAL HepG2 Assay for human Peroxisome Proliferator-activated Response Element (PPRE) (AID 2282958)
Settings: HepG2 PPRE cis-element reporter, Attagene transcription factor profiling; actives raise or lower the signal
Calls of active or inactive are those of the source. The calls were made as follows: active = hit-call score of the fitted dose curve at least 0.9, where 1 is the maximum; inactive = score below 0.9.
Form entry, call: pick from 1 (yes) for active, 0 (no) for inactive

Solved entries:
{"MOLECULE": "Cc1ccccc1OCC(=O)O", "ANSWER LABEL": "0 (no)"}
{"MOLECULE": "COC(=O)C(F)(F)C(F)(F)C(F)(F)C(F)(F)C(F)(F)F", "ANSWER LABEL": "0 (no)"}
{"MOLECULE": "C=CC(=O)OCCC(F)(F)C(F)(F)C(F)(F)C(F)(F)C(F)(F)C(F)(F)F", "ANSWER LABEL": "0 (no)"}

Here is the next item to consider.
## Input Recorded test outcome, item O=P(O)(O)CCC(F)(F)C(F)(F)C(F)(F)C(F)(F)C(F)(F)C(F)(F)C(F)(F)C(F)(F)F
## Output 0 (no)

* * *

Read-out: urokinase Plasminogen Activator (uPA), PLAU (gene 5328)
Test: BSK_BF4T_uPA: BioMAP Diversity Plus: BF4T Assay for urokinase Plasminogen Activator (uPA) Biomarker Activity (AID 2284275)
Conditions: primary human bronchial epithelial cells with fibroblasts
The source made the active and inactive calls. Rule for the calls: active = hit-call score of the fitted dose curve at least 0.9, where 1 is the maximum; inactive = score below 0.9.

{"SMILES NOTATION": "CN(CCO)S(=O)(=O)C(F)(F)C(F)(F)C(F)(F)C(F)(F)C(F)(F)C(F)(F)C(F)(F)C(F)(F)F", "outcome": "inactive"}
{"SMILES NOTATION": "CN(Cc1cnc2nc(N)nc(N)c2n1)c1ccc(C(=O)N[C@@H](CCC(=O)O)C(=O)O)cc1", "outcome": "inactive"}
{"SMILES NOTATION": "C=CC(=O)OCCC(F)(F)C(F)(F)C(F)(F)C(F)(F)C(F)(F)C(F)(F)C(F)(F)C(F)(F)F", "outcome": "inactive"}

* * *

Read-out: Urokinase-type plasminogen activator receptor (uPAR), PLAUR (gene 5329)
Test: BSK_BE3C_uPAR: BioMAP Diversity Plus: BE3C Assay for Urokinase-type plasminogen activator receptor (uPAR) Biomarker Activity (AID 2283039);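 also: uPAR protein level measured by ELISA on the cells; cells exposed to compound for one day before measurement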
Details: primary human bronchial epithelial cells; actives raise or lower the signal
The source made the active and inactive calls. Rule for the calls: active = hit-call score of the fitted dose curve at least 0.9, where 1 is the maximum; inactive = score below 0.9.
Log the outcome using a class from True for active, False for inactive

{"SMILES NOTATION": "CCCCCCCCCCCC", "ANSWER LABEL": "False"}
{"SMILES NOTATION": "O=C(NCc1ncc(C(F)(F)F)cc1Cl)c1c(Cl)cccc1Cl", "ANSWER LABEL": "False"}

## Input I'd appreciate the recorded outcome for OCC(F)(F)C(F)(F)C(F)(F)C(F)(F)C(F)(F)C(F)(F)C(F)(F)C(F)(F)C(F)(F)C(F)(F)C(F)(F)F from this test.
## Output False

## Input Try the molecule CCOC(=O)CN[C@@H](C(=O)N1CC[C@H]1C(=O)NCc1ccc(/C(N)=N/O)cc1)C1CCCCC1
## Output False

* * *

Biological target: D(1A) dopamine receptor (Homo sapiens)
Assay: NVS_GPCR_hDRD1: NovaScreen (NVS) G Protein-Coupled Receptor Assay for human Dopamine Receptor D1 (DRD1) (AID 2283269)
Inconclusive results are not listed. The source made the active and inactive calls. How the source made its calls: active means hit-call score of the fitted dose curve at least 0.9, where 1 is the maximum; inconclusive means response in the unintended direction; inactive means score below 0.9.
Write down one outcome, taken from active, inactive

Worked set:
{"SMILES NOTATION": "O=C1OC2(c3ccccc31)c1cc(I)c(O)c(I)c1Oc1c2cc(I)c(O)c1I", "ANSWER LABEL": "active"}
{"SMILES NOTATION": "O=C1c2ccc(O)c(O)c2C(=O)c2c(O)ccc(O)c21", "ANSWER LABEL": "inactive"}
{"SMILES NOTATION": "C/C=C/C(=O)C1=C(C)CCCC1(C)C", "ANSWER LABEL": "inactive"}
{"SMILES NOTATION": "CC(C)(C)c1ccc(O)c(O)c1", "ANSWER LABEL": "active"}
{"SMILES NOTATION": "NC(=NCCCCCCN=C(N)/N=C(\\N)Nc1ccc(Cl)cc1)/N=C(\\N)Nc1ccc(Cl)cc1", "ANSWER LABEL": "active"}
{"SMILES NOTATION": "CC=O", "ANSWER LABEL": "inactive"}
{"SMILES NOTATION": "CCCCCCCCC(C)=O", "ANSWER LABEL": "inactive"}

Below: the item to evaluate.
## Input Recorded test outcome, item CCc1cccc(CC)c1NC(=O)C(=O)O
## Output inactive

* * *

Biological target: Estrogen receptor (Homo sapiens) + Estrogen receptor beta (Homo sapiens) (UniProt P03372+Q92731)
Sequence (P03372 whole entry, looked up, the tested form may be a part): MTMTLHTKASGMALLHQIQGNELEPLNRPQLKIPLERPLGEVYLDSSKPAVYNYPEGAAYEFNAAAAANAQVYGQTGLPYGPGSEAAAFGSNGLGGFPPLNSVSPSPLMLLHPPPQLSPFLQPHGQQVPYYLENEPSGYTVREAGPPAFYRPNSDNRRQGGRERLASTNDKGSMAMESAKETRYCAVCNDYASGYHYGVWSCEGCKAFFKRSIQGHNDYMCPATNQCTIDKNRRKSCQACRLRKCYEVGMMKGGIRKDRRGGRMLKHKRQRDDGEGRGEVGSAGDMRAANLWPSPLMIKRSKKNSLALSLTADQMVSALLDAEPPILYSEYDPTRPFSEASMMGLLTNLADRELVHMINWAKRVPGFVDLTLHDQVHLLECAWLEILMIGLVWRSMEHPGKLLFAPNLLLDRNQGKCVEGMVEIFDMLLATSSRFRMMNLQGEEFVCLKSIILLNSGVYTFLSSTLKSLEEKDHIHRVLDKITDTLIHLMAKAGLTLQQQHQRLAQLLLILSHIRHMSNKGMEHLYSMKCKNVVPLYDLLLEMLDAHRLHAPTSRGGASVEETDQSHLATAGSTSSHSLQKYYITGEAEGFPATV
Sequence (Q92731 whole entry, looked up, the tested form may be a part): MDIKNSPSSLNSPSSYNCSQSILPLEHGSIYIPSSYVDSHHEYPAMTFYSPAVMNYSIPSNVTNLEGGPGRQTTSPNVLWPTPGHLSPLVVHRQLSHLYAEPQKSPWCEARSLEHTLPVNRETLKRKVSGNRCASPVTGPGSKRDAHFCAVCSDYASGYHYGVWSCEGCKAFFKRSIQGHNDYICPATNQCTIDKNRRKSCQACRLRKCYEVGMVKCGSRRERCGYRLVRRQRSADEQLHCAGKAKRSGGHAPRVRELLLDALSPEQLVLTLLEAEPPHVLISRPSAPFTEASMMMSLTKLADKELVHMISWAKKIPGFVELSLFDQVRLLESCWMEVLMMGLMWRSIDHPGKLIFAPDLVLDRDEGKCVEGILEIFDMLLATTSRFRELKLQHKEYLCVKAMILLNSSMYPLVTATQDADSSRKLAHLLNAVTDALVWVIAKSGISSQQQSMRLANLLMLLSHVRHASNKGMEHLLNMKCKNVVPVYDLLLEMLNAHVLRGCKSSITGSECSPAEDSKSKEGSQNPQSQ
Test: OT_ER_ERaERb_1440: Odyssey Thera (OT) 24-hour HEK293T Protein-Complementation Assay for Estrogen Receptor-alpha/-beta Homodimer (AID 2283356);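 also: heteromer of ER alpha and ER beta binding domains; hits raise reporter fluorescence and both agonists and antagonists give an increase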
Experimental: OT_ER_ERaERb_1440 is a cell-based assay that uses HEK293T, a human kidney cell line, with measurements taken at 24 hours after chemical dosing in a 384-well plate.OT_ER_ERaERb_1440 is one of one assay component(s) measured or calculated from the OT_ER_ERaERb_1440 assay. […] This assay endpoint, OT_ER_ERaERb_1440, was analyzed in the positive analysis fitting direction relative to DMSO as the negative control and baseline of activity. […]
Records with an inconclusive call do not appear. Active and inactive are the calls of the source. Rule for the calls: active = hit-call score of the fitted dose curve at least 0.9, where 1 is the maximum; inconclusive = response in the unintended direction; inactive = score below 0.9.
Outcome (select one): TRUE = active, FALSE = inactive

Recorded results for 5 compounds are shown here.
{"COMPOUND": "CCCCCCCCCC=CCC1CC(=O)OC1=O (stereo not drawn)", "ANSWER LABEL": "FALSE"}
{"COMPOUND": "COc1cc([N+](=O)[O-])ccc1N", "ANSWER LABEL": "FALSE"}
{"COMPOUND": "CN(C)CCOC(c1ccccc1)c1ccccc1", "ANSWER LABEL": "FALSE"}
{"COMPOUND": "O=C(O)c1cccc(C(=O)O)n1", "ANSWER LABEL": "FALSE"}
{"COMPOUND": "CCCCCCCCCCCCOC(=O)c1cc(O)c(O)c(O)c1", "ANSWER LABEL": "TRUE"}

## Input Call for entry CCCCc1ccc2ccccc2c1S(=O)(=O)O :
## Output FALSE

## Input Same question for Cc1cc(Cc2cc(C)cc(C(C)(C)C)c2O)c(O)c(C(C)(C)C)c1 please.
## Output FALSE

## Input Now the same for Cc1cc(C(=C2C=CC(=Nc3ccc(S(=O)(=O)O)cc3)C=C2)c2ccc(Nc3ccc(S(=O)(=O)O)cc3)cc2)cc(S(=O)(=O)O)c1N
## Output FALSE

* * *

Biological target: human Norepinephrine Transporter (NET), SLC6A2 (gene 6530) (UniProt P23975)
Sequence (P23975 whole entry, looked up): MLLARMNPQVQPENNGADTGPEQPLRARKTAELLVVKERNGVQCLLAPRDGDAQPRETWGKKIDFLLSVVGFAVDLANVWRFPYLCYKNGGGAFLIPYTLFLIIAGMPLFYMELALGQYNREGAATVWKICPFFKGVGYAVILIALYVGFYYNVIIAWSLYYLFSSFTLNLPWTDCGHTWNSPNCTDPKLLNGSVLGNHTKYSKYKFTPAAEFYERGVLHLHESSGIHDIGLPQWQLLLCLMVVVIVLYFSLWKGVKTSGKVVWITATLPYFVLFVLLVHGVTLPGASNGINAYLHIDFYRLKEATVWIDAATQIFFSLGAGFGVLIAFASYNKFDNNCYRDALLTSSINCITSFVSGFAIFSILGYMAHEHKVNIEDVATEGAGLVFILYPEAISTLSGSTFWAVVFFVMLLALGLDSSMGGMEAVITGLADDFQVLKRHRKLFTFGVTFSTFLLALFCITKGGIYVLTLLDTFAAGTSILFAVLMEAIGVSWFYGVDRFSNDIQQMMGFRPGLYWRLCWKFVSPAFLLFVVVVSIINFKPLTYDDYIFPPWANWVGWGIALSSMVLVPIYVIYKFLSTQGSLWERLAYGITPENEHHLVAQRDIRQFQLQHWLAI
Assay: NVS_TR_hNET: NovaScreen (NVS) Transporter Assay for human Norepinephrine Transporter (NET) (AID 2283377);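 also: cell-free membrane protein extracted from CHO cells expressing human NET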
Protocol: NVS_TR_hNET is a biochemical, single-readout assay that uses extracted gene-proteins from CHO in a cell-free assay. Measurements were taken 1 hour after chemical dosing in a 96-well plate.NVS_TR_hNET is one of one assay component(s) measured or calculated from the NVS_TR_hNET assay. […] This assay endpoint, NVS_TR_hNET, was analyzed in the positive analysis fitting direction relative to DMSO as the negative control and baseline of activity. […]
Records with an inconclusive call do not appear. Activity calls are given as the source filed them. The calls were made as follows: active = hit-call score of the fitted dose curve at least 0.9, where 1 is the maximum; inconclusive = response in the unintended direction; inactive = score below 0.9.
The reply should name one outcome from active, inactive

Below, 6 molecules whose answers are already recorded.
{"SMILES NOTATION": "CN(Cc1cnc2nc(N)nc(N)c2n1)c1ccc(C(=O)N[C@@H](CCC(=O)O)C(=O)O)cc1", "ANSWER LABEL": "inactive"}
{"SMILES NOTATION": "Clc1ccc2c(Cl)ccnc2c1", "ANSWER LABEL": "active"}
{"SMILES NOTATION": "Clc1ccc(Nc2nnc(Cc3ccncc3)c3ccccc23)cc1", "ANSWER LABEL": "active"}
{"SMILES NOTATION": "CCCCCCCCCCCCCCCCCC[N+](C)(C)Cc1ccccc1", "ANSWER LABEL": "active"}
{"SMILES NOTATION": "C=Cc1ccc(O)c(OC)c1", "ANSWER LABEL": "active"}
{"SMILES NOTATION": "O=C1OC2(c3ccccc31)c1cc(I)c(O)c(I)c1Oc1c2cc(I)c(O)c1I", "ANSWER LABEL": "active"}

## Input Name the outcome recorded for N=C(N)c1ccc(OCCCCCOc2ccc(C(=N)N)cc2)cc1 in the assay.
## Output active

## Input Then this molecule: Oc1cccc2c(O)cccc12
## Output inactive

## Input Follow-up entry: CCCCCc1ccc(O)cc1
## Output active

## Input # iterate: CCCCCCCCCCCCCCC
## Output inactive

Cited source for all entries: PubChem BioAssay (EPA / NIEHS)
